Taken from patent US20210155689A1.

Biological target: T1, human LAG-3 on cells (HEK293-hLAG-3 stable cell line) (human, UniProt P18627 23-525)
T1 sequence: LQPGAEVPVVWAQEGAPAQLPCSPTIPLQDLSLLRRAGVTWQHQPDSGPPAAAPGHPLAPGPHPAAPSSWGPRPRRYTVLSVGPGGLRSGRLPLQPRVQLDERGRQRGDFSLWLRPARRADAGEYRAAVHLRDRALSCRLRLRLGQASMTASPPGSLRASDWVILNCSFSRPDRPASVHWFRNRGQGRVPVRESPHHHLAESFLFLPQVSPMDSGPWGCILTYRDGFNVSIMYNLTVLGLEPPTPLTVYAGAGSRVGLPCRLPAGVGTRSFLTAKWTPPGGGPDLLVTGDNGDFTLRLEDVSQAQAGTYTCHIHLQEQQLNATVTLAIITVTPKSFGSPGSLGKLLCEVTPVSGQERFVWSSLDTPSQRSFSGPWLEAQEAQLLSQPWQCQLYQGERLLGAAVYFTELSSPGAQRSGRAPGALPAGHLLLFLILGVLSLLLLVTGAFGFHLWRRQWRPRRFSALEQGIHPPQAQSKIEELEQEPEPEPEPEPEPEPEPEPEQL
Experiment: FACS, HEK293-hLAG-3, antibody 40 nM
Excerpt: A. The binding of antibodies to LAG-3 expressing cells was detected by Flow cytometry (FACS), wherein the method was according to that of Example 5.
measured_metric: Mean fluorescence intensity

binder="405B8H3-8 humanized antibody (antibody, V domains shown) VH: QVQLVQSGAEVKKPGASVKVSCKASGYTFTDYEMHWVKQAPGQGLEWIGATDPETGNSAYNQKFKGKATMTADKSTSTAYMELSSLRSEDTAVYYCISTGWNDWGQGTTVTVSS VL: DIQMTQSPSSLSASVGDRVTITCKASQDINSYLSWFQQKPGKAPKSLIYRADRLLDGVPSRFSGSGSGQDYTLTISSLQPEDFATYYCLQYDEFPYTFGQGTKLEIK" measured_metric="Mean fluorescence intensity" result=242
binder="405B8H3-5 humanized antibody (antibody, V domains shown) VH: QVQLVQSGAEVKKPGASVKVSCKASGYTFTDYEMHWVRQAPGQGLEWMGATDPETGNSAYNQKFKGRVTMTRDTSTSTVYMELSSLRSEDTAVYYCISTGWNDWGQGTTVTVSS VL: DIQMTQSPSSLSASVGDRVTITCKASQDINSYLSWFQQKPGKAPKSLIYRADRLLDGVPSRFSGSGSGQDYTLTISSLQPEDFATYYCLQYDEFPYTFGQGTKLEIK" measured_metric="Mean fluorescence intensity" result=257

In one line, give reported Mean fluorescence intensity of the entry 405B8H3-2 humanized antibody (antibody, V domains shown) VH: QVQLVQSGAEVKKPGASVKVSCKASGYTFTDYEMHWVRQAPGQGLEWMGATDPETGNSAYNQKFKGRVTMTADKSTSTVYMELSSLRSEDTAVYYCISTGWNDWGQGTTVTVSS VL: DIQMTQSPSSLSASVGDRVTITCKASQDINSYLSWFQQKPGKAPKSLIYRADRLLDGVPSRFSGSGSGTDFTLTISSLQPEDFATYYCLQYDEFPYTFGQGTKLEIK .
272
